Every entry's value here was drawn from patent US5041447A.

Development of virus antigen (%): recorded values
system: HIV (human immunodeficiency virus); assay: Anti-HIV activity: development of virus antigen in HIV-infected MT-4 cells (indirect fluorescent antibody method); type: cell-based; details: 10 μg/ml, 4 days, DMSO only 80 to 90%

>  <Structure Smiles String>
O=c1[nH]cnc2c1ncn2[C@H]1C[C@@H](CO)O1

>  <Subject Of Test>
HIV (human immunodeficiency virus)

>  <Result Unit>
%

>  <Comparison Sign>
<

>  <Development of virus antigen (%)>
0.1

$$$$
>  <Structure Smiles String>
Nc1ncnc2c1ncn2[C@@H]1O[C@H](CO)[C@@H]1O

>  <Subject Of Test>
HIV (human immunodeficiency virus)

>  <Result Unit>
%

>  <Comparison Sign>
=

>  <Development of virus antigen (%)>
0.1

$$$$
>  <Structure Smiles String>
Nc1ncnc2c1ncn2[C@H]1C[C@@H](CO)O1

>  <Subject Of Test>
HIV (human immunodeficiency virus)

>  <Result Unit>
%

>  <Comparison Sign>
<

>  <Development of virus antigen (%)>
0.1

$$$$
>  <Structure Smiles String>
O=c1[nH]cnc2c1ncn2[C@@H]1O[C@H](CO)[C@H]1COS(=O)(=O)O

>  <Subject Of Test>
HIV (human immunodeficiency virus)

>  <Result Unit>
%

>  <Comparison Sign>
=

>  <Development of virus antigen (%)>
10

$$$$
>  <Structure Smiles String>
[N-]=[N+]=N[C@H]1[C@H](n2cnc3c(N)ncnc32)O[C@@H]1CO

>  <Subject Of Test>
HIV (human immunodeficiency virus)

>  <Result Unit>
%

>  <Comparison Sign>
=

>  <Development of virus antigen (%)>
75

$$$$
>  <Structure Smiles String>
[N-]=[N+]=NC[C@H]1[C@H](n2cnc3c(N)ncnc32)O[C@@H]1CO

>  <Subject Of Test>
HIV (human immunodeficiency virus)

>  <Result Unit>
%

>  <Comparison Sign>
=

>  <Development of virus antigen (%)>
10

$$$$
>  <Structure Smiles String>
CCCCC(=O)OC[C@H]1O[C@@H](n2cnc3c(N)ncnc32)[C@@H]1CO

>  <Subject Of Test>
HIV (human immunodeficiency virus)

>  <Result Unit>
%

>  <Comparison Sign>
=

>  <Development of virus antigen (%)>
3

$$$$
>  <Structure Smiles String>
C=C1[C@H](n2cnc3c(N)ncnc32)O[C@@H]1CO

>  <Subject Of Test>
HIV (human immunodeficiency virus)

>  <Result Unit>
%

>  <Comparison Sign>
=

>  <Development of virus antigen (%)>
3

$$$$
>  <Structure Smiles String>
Nc1ncnc2c1ncn2[C@@H]1O[C@H](CO)[C@H]1N

>  <Subject Of Test>
HIV (human immunodeficiency virus)

>  <Result Unit>
%

>  <Comparison Sign>
=

>  <Development of virus antigen (%)>
6

$$$$
>  <Structure Smiles String>
CCCCCCCCCCCCCCCC(=O)OC[C@H]1O[C@@H](n2cnc3c(N)ncnc32)[C@@H]1CO

>  <Subject Of Test>
HIV (human immunodeficiency virus)

>  <Result Unit>
%

>  <Comparison Sign>
=

>  <Development of virus antigen (%)>
3

$$$$
>  <Structure Smiles String>
Nc1ncnc2c1ncn2[C@@H]1O[C@H](CO)[C@H]1F

>  <Subject Of Test>
HIV (human immunodeficiency virus)

>  <Result Unit>
%

>  <Comparison Sign>
=

>  <Development of virus antigen (%)>
50

$$$$
